# System: SGC-7901
# PROTOCOL TEXT: Antiproliferative activity against cisplatin resistant human SGC-7901 cells assessed as sensitizing activity at 20 uM in presence of cisplatin
# Format: functional, cell-based
Activity calls are given as the source filed them. The rule behind the calls is not given here.
Classes used: true (1) = active, false (0) = inactive

>>> label_class("Clc1ccc([C@H]2CC[C@H](NCCN3CCNCC3)c3ccccc32)cc1Cl (relative stereo)")
"true (1)"
>>> label_class("CCCCN[C@@H]1CC[C@@H](c2ccc(Cl)c(Cl)c2)c2ccccc21 (relative stereo)")
"true (1)"
>>> label_class("NCCN[C@@H]1CC[C@H](c2ccc(Cl)c(Cl)c2)c2ccccc21 (relative stereo)")
"true (1)"
>>> label_class("NCCCCN[C@@H]1CC[C@H](c2ccc(Cl)c(Cl)c2)c2ccccc21 (relative stereo)")
"true (1)"
>>> label_class("COc1cccc(CN[C@@H]2CC[C@@H](c3ccc(Cl)c(Cl)c3)c3ccccc32)c1 (relative stereo)")
"false (0)"
>>> label_class("COc1ccc(CN[C@@H]2CC[C@@H](c3ccc(Cl)c(Cl)c3)c3ccccc32)cc1OC (relative stereo)")
"false (0)"
>>> label_class("NCCCCCCN[C@@H]1CC[C@H](c2ccc(Cl)c(Cl)c2)c2ccccc21 (relative stereo)")
"true (1)"
>>> label_class("Clc1ccc([C@@H]2CC[C@@H](NCc3ccccc3)c3ccccc32)cc1Cl (relative stereo)")
"true (1)"
>>> label_class("NCCCCN[C@@H]1CC[C@@H](c2ccc(Cl)c(Cl)c2)c2ccccc21 (relative stereo)")
"true (1)"
>>> label_class("CC(=O)N[C@H]1CC[C@H](c2ccc(Cl)c(Cl)c2)c2ccccc21 (relative stereo)")
"false (0)"
>>> label_class("FC(F)(F)c1cccc(CN[C@@H]2CC[C@@H](c3ccc(Cl)c(Cl)c3)c3ccccc32)c1 (relative stereo)")
"false (0)"
>>> label_class("Clc1ccc([C@@H]2CC[C@@H](NCc3ccc4c(c3)OCO4)c3ccccc32)cc1Cl")
"false (0)"
>>> label_class("O=C(CCCCl)N[C@H]1CC[C@H](c2ccc(Cl)c(Cl)c2)c2ccccc21")
"false (0)"
>>> label_class("N[C@H]1CC[C@H](c2ccc(Cl)c(Cl)c2)c2ccccc21 (relative stereo)")
"false (0)"
>>> label_class("NCCCCCCN[C@@H]1CC[C@@H](c2ccc(Cl)c(Cl)c2)c2ccccc21 (relative stereo)")
"true (1)"
>>> label_class("Cc1ccc(CN[C@@H]2CC[C@@H](c3ccc(Cl)c(Cl)c3)c3ccccc32)cc1 (relative stereo)")
"false (0)"
>>> label_class("NCCN[C@@H]1CC[C@@H](c2ccc(Cl)c(Cl)c2)c2ccccc21 (relative stereo)")
"true (1)"

Hello, the source for this data is ChEMBL document CHEMBL4814038, in case you need it.
